These entries and their values trace back to patent US20240116985A1.

# tested target: full-length beta-Catenin (Uniprot ID P35222) (Homo sapiens)
# Construct: 10 nM full-length beta-Catenin (Uniprot ID P35222)
# Sequence (P35222 1-781): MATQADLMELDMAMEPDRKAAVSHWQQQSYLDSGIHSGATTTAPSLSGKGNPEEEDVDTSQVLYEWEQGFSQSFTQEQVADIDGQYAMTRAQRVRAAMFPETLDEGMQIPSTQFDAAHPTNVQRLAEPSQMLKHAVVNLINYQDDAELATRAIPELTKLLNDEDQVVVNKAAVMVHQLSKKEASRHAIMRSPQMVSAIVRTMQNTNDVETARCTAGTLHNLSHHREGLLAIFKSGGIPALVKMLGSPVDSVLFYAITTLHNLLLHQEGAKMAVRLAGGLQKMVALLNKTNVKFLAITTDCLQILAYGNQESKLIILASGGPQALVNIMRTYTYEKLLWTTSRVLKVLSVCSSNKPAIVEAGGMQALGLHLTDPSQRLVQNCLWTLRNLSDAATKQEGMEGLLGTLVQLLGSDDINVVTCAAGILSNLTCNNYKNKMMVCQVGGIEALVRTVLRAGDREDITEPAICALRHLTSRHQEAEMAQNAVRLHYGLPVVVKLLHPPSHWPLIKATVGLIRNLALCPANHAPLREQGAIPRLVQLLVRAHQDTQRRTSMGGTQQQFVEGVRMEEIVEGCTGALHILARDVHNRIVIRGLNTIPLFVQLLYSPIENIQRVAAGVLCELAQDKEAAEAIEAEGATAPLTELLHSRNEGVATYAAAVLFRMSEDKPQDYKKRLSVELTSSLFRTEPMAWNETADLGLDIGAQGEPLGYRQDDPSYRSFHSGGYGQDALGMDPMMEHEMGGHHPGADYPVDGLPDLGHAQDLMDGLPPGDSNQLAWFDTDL
# test name: Fluorescence polarization IC50 (beta-catenin / 5FAM-TCF4 10-53 competition)
# Type: binding
# measurement conditions: fluorescence polarization; read-out: beta-Catenin FP IC50
pIC50: −log10 of the molar value.

{"compound": "CC(=O)N1CCC[C@]12CC=CCCCC1(CCCC=CCCCOC(=O)N3CC[C@@](C(=O)N[C@@H](Cc4ccsc4)C(=O)N[C@@H](Cc4csc5ccccc45)C(=O)N[C@@H](CCC(N)=O)C(=O)N[C@@H](C)CO)(C3)NC(=O)[C@H](CC(C)C)NC(=O)[C@H](Cc3ccccc3)NC(=O)[C@H](C)NC(=O)[C@H](C)NC(=O)[C@H](CN(CC(=O)O)CC(F)(F)F)NC(=O)[C@H](CC(=O)O)NC1=O)NC(=O)[C@H](CC(C)(C)C)NC(=O)[C@H](CC(=O)O)NC2=O (stereo partly drawn) [I-1679]", "pIC50": 7.76}
{"compound": "CC[C@H](C)[C@@H]1NC(=O)[C@H](CC(=O)O)NC(=O)[C@]2(CC=CCCCC3(CCCC=CCCCCCC[C@@](C)(C(=O)N[C@@H](Cc4ccccc4)C(=O)N[C@@H](Cc4csc5ccccc45)C(=O)N[C@@H](Cc4c[nH]cn4)C(N)=O)NC(=O)[C@H](CCC(N)=O)NC(=O)[C@H](Cc4ccccc4)NC(=O)[C@H](C)NC(=O)[C@H](C)NC(=O)[C@H](CCC(=O)O)NC(=O)[C@H](CC(=O)O)NC3=O)NC1=O)CCCN2C(C)=O (stereo partly drawn) [I-471]", "pIC50": 7.28}
{"compound": "CC(=O)N1CCC[C@]12CC=CCCCC1(CCCC=CCCCCCC[C@@](C)(C(=O)N[C@@H](Cc3cccs3)C(=O)N[C@@H](Cc3csc4ccccc34)C(=O)N[C@@H](CCC(N)=O)C(N)=O)NC(=O)[C@H](CC(N)=O)NC(=O)[C@H](Cc3ccccc3)NC(=O)[C@H](C)NC(=O)[C@H](C)NC(=O)[C@H](CC(=O)O)NC(=O)[C@H](CC(=O)O)NC1=O)NC(=O)[C@H](CC(C)(C)C)NC(=O)[C@H](CC(=O)O)NC2=O (stereo partly drawn) [I-1391]", "pIC50": 7.96}
{"compound": "CC(=O)N1CCC[C@]12CC=CCCCC1(CCCC=CCCCOC(=O)N3CC[C@@](C(=O)N[C@@H](Cc4ccsc4)C(=O)N[C@@H](Cc4csc5ccccc45)C(=O)N[C@@H](CCC(N)=O)C(N)=O)(C3)NC(=O)[C@H](CCO)NC(=O)[C@H](Cc3cccc(C(=O)O)c3)NC(=O)[C@H](C)NC(=O)[C@H](C)NC(=O)[C@H](Cc3c[nH]c4ccccc34)NC(=O)[C@H](CC(=O)O)NC1=O)NC(=O)[C@H](CC(C)(C)C)NC(=O)[C@H](CC(=O)O)NC2=O (stereo partly drawn) [I-2128]", "pIC50": 7.54}
{"compound": "CC(=O)N1CCC[C@H]1C(=O)N[C@@H](CC(=O)O)C(=O)N[C@@H](CC(C)(C)C)C(=O)N[C@]1(C)CCCC=CCCCOC(=O)N2CC[C@@](C(=O)N[C@@H](Cc3ccccc3Cl)C(=O)N[C@@H](Cc3csc4ccccc34)C(=O)N[C@@H](CCC(N)=O)C(N)=O)(C2)NC(=O)[C@H](CC(N)=O)NC(=O)[C@H](Cc2ccccc2)NC(=O)[C@H](C)NC(=O)[C@H](C)NC(=O)[C@H](CC(=O)O)NC(=O)[C@H](CC(=O)O)NC1=O [I-1183]", "pIC50": 6.39}
{"compound": "CC(=O)N1CCC[C@]12CC=CCCCC1(CCCC=CCCCCCC[C@@](C)(C(=O)N[C@@H](Cc3ccsc3)C(=O)N[C@@H](Cc3csc4ccccc34)C(=O)N[C@@H](CCC(N)=O)C(N)=O)NC(=O)[C@H](CC(N)=O)NC(=O)[C@H](Cc3ccccc3)NC(=O)[C@H](C)NC(=O)[C@H](C)NC(=O)[C@H](CN(CC(=O)O)CC(F)(F)F)NC(=O)[C@H](CC(=O)O)NC1=O)NC(=O)[C@H](CC1CCCCC1)NC(=O)[C@H](CC(=O)O)NC2=O (stereo partly drawn) [I-708]", "pIC50": 7.28}
{"compound": "CC(=O)N1CCC[C@]12CC=CCCCC1(CCCC=CCCCCCC[C@@](C)(C(=O)N[C@@H](Cc3ccccc3)C(=O)N[C@@H](Cc3csc4ccccc34)C(=O)N[C@@H](CCC(N)=O)C(N)=O)NC(=O)[C@H](CC(C)C)NC(=O)[C@H](Cc3ccccc3)NC(=O)[C@H](C)NC(=O)[C@H](C)NC(=O)[C@H](CCC(=O)O)NC(=O)[C@H](CC(=O)O)NC1=O)NC(=O)[C@H](CC(N)=O)NC(=O)[C@H](CC(=O)O)NC2=O (stereo partly drawn) [I-1533]", "pIC50": 7.12}
{"compound": "CC(=O)N1CCC[C@]12CC=CCCCC1(CCCC=CCCCOC(=O)N3CC[C@@](C(=O)N[C@@H](Cc4ccsc4)C(=O)N[C@@H](Cc4csc5ccccc45)C(=O)N[C@H](CO)[C@@H](C)O)(C3)NC(=O)[C@H](Cc3ccccc3)NC(=O)[C@H](Cc3ccccc3)NC(=O)[C@H](C)NC(=O)[C@H](C)NC(=O)[C@H](CC(=O)O)NC(=O)[C@H](CC(=O)O)NC1=O)NC(=O)[C@H](CC(C)(C)C)NC(=O)[C@H](CC(=O)O)NC2=O (stereo partly drawn) [I-1303]", "pIC50": 7.07}
{"compound": "CC(=O)N1CCC[C@]12CCCCCC1(CCCCCCOC(=O)N3CC[C@@](C(=O)N[C@@H](Cc4ccsc4)C(=O)N[C@@H](Cc4csc5ccccc45)C(=O)N[C@@H](CCC(N)=O)C(N)=O)(C3)NC(=O)[C@H](CC(C)C)NC(=O)[C@H](Cc3ccccc3)NC(=O)[C@H](C)NC(=O)[C@H](C)NC(=O)[C@H](CC(=O)O)NC(=O)[C@H](CC(=O)O)NC1=O)NC(=O)[C@H](CC(C)(C)C)NC(=O)[C@H](CC(=O)O)NC2=O (stereo partly drawn) [I-1974]", "pIC50": 6.49}
